// data source = PubChem BioAssay AID2710

biological target: Dual specificity protein kinase CLK4 (Homo sapiens) (UniProt Q9HAZ1); test: Kinase Inhibition Profile Study on Inhibitors of CDC-like Kinase 4; settings: Reaction Biology radiometric kinase assay, 10 uM ATP
Sequence (Q9HAZ1 whole entry, looked up): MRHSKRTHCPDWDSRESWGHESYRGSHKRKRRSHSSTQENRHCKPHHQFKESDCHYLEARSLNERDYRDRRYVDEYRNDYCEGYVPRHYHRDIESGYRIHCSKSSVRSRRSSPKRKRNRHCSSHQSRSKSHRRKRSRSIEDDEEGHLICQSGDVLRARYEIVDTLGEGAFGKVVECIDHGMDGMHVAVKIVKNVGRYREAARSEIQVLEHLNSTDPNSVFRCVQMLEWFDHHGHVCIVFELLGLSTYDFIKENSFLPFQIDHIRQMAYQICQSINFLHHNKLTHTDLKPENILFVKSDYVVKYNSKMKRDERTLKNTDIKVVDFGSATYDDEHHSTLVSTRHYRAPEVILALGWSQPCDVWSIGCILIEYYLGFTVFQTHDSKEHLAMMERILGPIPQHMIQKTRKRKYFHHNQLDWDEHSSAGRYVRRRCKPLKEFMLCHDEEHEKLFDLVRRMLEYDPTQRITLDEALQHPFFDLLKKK
Calls of active or inactive are those of the source.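 Rule for the calls: active = compounds whose dose response marks them as Clk4 kinase inhibitors with a measurable half-maximal potency; inactive = the rest.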

[
  {
    "Structure as smiles": "CCOC(=O)c1ccc(-c2ccc3ncnc(NCCc4cnc[nH]4)c3c2)o1",
    "Potency": "250 nM (active)"
  },
  {
    "Structure as smiles": "OCc1ccc(-c2ccc3ncnc(NCCc4cnc[nH]4)c3c2)o1",
    "Potency": "1290 nM (active)"
  },
  {
    "Structure as smiles": "Cc1nc(CNc2ncnc3ccc(-c4ccoc4)cc23)cs1",
    "Potency": "340 nM (active)"
  }
]
